- test name: osmotic lysis modulators in infected erythrocytes, primary screen, PSAC antagonist project, cell-based, P. falciparum Indochina, OD700, 3 h (AID 1156)
- stated conditions: higher = more signal, called active from +8 up or from −8 down
quantity measured: z-score
The response must contain the number and no unit.

Worked examples follow.
INSERT INTO results (input_smiles, quantity_measured, readout_value) VALUES
  ('COCCOC(=O)N1C(=O)[C@@]2(c3cc(C#CCNC(N)=O)ccc31)[C@H](C(N)=O)[C@H]1C(=O)O[C@H](c3ccccc3)[C@H](c3ccccc3)N1[C@@H]2c1ccc(O)cc1', 'z-score', -1.12),
  ('O=C1N(Cc2ccccc2)c2ccccc2C[C@@]12N=C(c1ccc(OCCCO)cc1)O[C@H]2c1ccccc1', 'z-score', 3.39),
  ('COc1ccc(C(=O)Nc2ccc(CN3C(=O)[C@]4(O[C@H](CC(=O)N(CCO)Cc5ccccc5)[C@@H]([Si](C)(C)c5ccc(OC)cc5)[C@@H]4C)c4ccccc43)cc2)cc1', 'z-score', 0.439),
  ('COC(=O)C(CC#Cc1ccc2c(c1)[C@]1(C(=O)N2)[C@H](C(=O)N2CCN(c3ncccn3)CC2)[C@H]2C(=O)O[C@H](c3ccccc3)[C@H](c3ccccc3)N2[C@@H]1c1ccc(O)cc1)C(=O)OC', 'z-score', 0.804),
  ('COC(=O)c1c2oc(c1C(=O)OC)C(=O)N[C@H](Cc1ccccc1)Cn1cc(nn1)C1(CCCCC1)NC(=O)N[C@H](CO)CC2', 'z-score', 0.789);

We next turn to a different molecule, shown below.
Req: Endpoint output: z-score of COc1ccc([Si](C)(C)[C@@H]2[C@@H](CC(=O)N3Cc4ccccc4C[C@H]3CO)O[C@]3(C(=O)N(Cc4ccc(I)cc4)c4ccccc43)[C@H]2C)cc1 . Value?
Resp: 2.47

###

Listing: composite z-score of selected compounds
- test name: binders of probe aHhip on microarray, primary screen, stem cell growth factor project, biochemical, small-molecule microarray, fluorescence 635/667 (AID 1087);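 further: score merges spot fluorescence at 667nm with spot signal to noise ratio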
- stated conditions: higher = more signal
Please give the numeric answer without any surrounding text.

INSERT INTO assay_data (compound, readout_value) VALUES
  ('[N-]=[N+]=NCc1ccccc1[C@H]1OC(c2ccc(OCCCO)cc2)=N[C@@]1(Cc1ccccc1N=[N+]=[N-])C(=O)N1CCOCC1', -0.0994);

Req: GET /values?readout=composite z-score&item= COc1cc2c(cc1OC)CN(C(=O)[C@@H]1[C@H]3C(=O)O[C@H](c4ccccc4)[C@H](c4ccccc4)N3[C@H](c3ccc(O)cc3)[C@@]13C(=O)Nc1ccc(C#CC4=CCCCC4)cc13)CC2
Resp: 0.0479

Req: Returns the measured composite z-score for the input compound. Input: COC(=O)C[C@H]1O[C@]2(C(=O)N(C)c3ccccc32)[C@@H](C)[C@@H]1[Si](C)(C)c1ccccc1
Resp: 0.357

###

- Test system: Neuregulin-1 EGF-like domain
- test name: binders of neuregulin-1 EGF-like domain, primary screen, biochemical, small-molecule microarray, 635 nm fluorescence (AID 1081);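 further: binding of the protein to compounds printed on small-molecule microarray slides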
- stated conditions: small-molecule microarray binding, higher = more signal
Recorded composite z-score for the following molecules
// return just the number, without any unit appended

INSERT INTO assay_data (molecule, readout_value) VALUES
  ('COCCCNC(=O)[C@@]1(c2ccc([N+](=O)[O-])cc2)CC(=O)N(C2CCCCC2)[C@@H]1c1ccc(CO)cc1I', 1.31);

Req: Fill in: composite z-score of Cc1ccc(S[C@]2(C(=O)NC(C)C)CC(=O)N(Cc3ccccc3)[C@@H]2c2ccc(CO)cc2)cc1 is ___
Resp: 0.57

Req: Recorded composite z-score of COC(=O)[C@@]1(Cc2ccccc2)[C@H]2c3cc(C(=O)N(C)C)n(Cc4nc5ccccc5[nH]4)c3C[C@H]2CN1C(=O)c1ccccc1 , please.
Resp: 1.33

Req: Requested read-out: composite z-score. Entry: CCOC(=O)C[C@H]1[C@H](OC(=O)c2ccc(-c3ccccc3)cc2)[C@@H](NC(=O)C2CCCCC2)c2cc(OCCCO)ccc2N1C(=O)Cc1ccc(OC)cc1
Resp: -0.481

Req: Which measured composite z-score value corresponds to O=C1NC(=O)C2C1C=CC(C(O)C(O)CO)N2Nc1ccccn1 (stereo not drawn) ?
Resp: 0.515

Req: Which composite z-score value belongs to [N-]=[N+]=NCc1ccccc1[C@H]1OC(c2ccc(OCCCO)cc2)=N[C@@]1(Cc1ccccc1N=[N+]=[N-])C(N)=O ?
Resp: 1.11

Req: Given C=C(CC1([C@@H](NP(=O)(c2ccccc2)c2ccccc2)[C@H]2C[C@@H]2CCCC)CC1)c1cccc(OC)c1 , state its recorded composite z-score.
Resp: 0.737

Req: Form field: reported composite z-score of CCCCCCc1nc(-c2ccc(OC)nc2)c(C)c2c1[Si](C(C)C)(C(C)C)OC2
Resp: -0.59

###

- test name: compound binding in COS7 lysate, probe aLAP1, primary screen, cell lysate, small-molecule microarray (AID 1124);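 further: lysate comes from COS7 cells expressing LAP1 and is applied at 0.3 µg/mL; score merges spot fluorescence near 667 nm with signal-to-noise over triplicate slides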
- stated conditions: probe aLAP1, fluorescence, higher = more signal
quantity measured: composite z-score
Quick one: just the number, no unit, thanks!

INSERT INTO results (input_smiles, quantity_measured, readout_value) VALUES
  ('COc1ccc(C(=O)Nc2ccc(CN3C(=O)[C@]4(O[C@H](CC(=O)N(CCO)Cc5ccccc5)[C@@H]([Si](C)(C)c5ccc(OC)cc5)[C@@H]4C)c4ccccc43)cc2)cc1', 'composite z-score', 1.62),
  ('O=C1O[C@H](c2ccccc2)[C@H](c2ccccc2)N2[C@H]1[C@@H](C(=O)O)[C@]1(C(=O)Nc3ccccc31)[C@H]2c1ccc(OCCO)cc1', 'composite z-score', 0.59),
  ('[N-]=[N+]=NCc1ccccc1[C@H]1OC(c2ccc(OCCCO)cc2)=N[C@@]1(Cc1ccccc1N=[N+]=[N-])C(=O)N1CCOCC1', 'composite z-score', -0.14);

API: the following record is the query input.
Req: Query: composite z-score; subject: CCCCC(=C=CC[C@@H](O)c1ccccc1OCCO)C[C@@H](O)c1ccccn1
Resp: 0.137

###

Listed compounds paired with reported composite z-score
- Tested on: wheat germ agglutinin (Triticum aestivum), Alexa647-labelled
- test name: wheat germ agglutinin binders on compound microarrays, profiling panel, artefact control for SMM control-protein annotation, biochemical, small-molecule microarray, 635/667 nm fluorescence (AID 1140);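 further: score merges 667 nm feature emission with signal to noise over triplicate slides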
- stated conditions: WGA-A647 binding, 635 nm fluorescence, higher = more signal
The answer should be written as a number, with no unit following it.

INSERT INTO assay_data (compound, quantity_measured, readout_value) VALUES
  ('CN1C(=O)C2CC=C(C3=CCO[C@@H]3[C@H]3CCCN3S(=O)(=O)c3ccccc3[N+](=O)[O-])CC2C1=O (some centres not stated)', 'composite z-score', -0.0718),
  ('C=C(COC)C(=O)CC[C@H](OC(C)=O)c1ccccc1OCCO', 'composite z-score', -0.368),
  ('C=C(CCCC)/C(=C/C[C@@H](OC(C)=O)c1ccc(OCCO)cc1)c1cc(C(=O)OC)ccc1OC', 'composite z-score', 0.94);

Next, consider the following compound.
Req: Which composite z-score is reported for this compound? C=C(COC)C(=O)CC[C@@H](OC(=O)c1ccccc1-c1ccccc1C(=O)O)c1ccccc1OCCO
Resp: -0.272

###

- test name: E. coli growth modulation, two-sided OD650, primary screen, E. coli filamentation project, strain DRC41, 24 h (AID 1093);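 further: MC1000 strain lacking acrAB efflux and sulA so SOS filamentation is blocked; test concentration not given here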
- stated conditions: OD650, 24 h, higher = more signal, called active from +8 up or from −8 down
quantity measured: z-score
Give a plain numeric answer without units written out.

INSERT INTO measurements (input_smiles, readout_value) VALUES
  ('O=C(NCC(F)(F)F)[C@@H]1c2ccccc2C(=O)N(Cc2cc(C(F)(F)F)cc(C(F)(F)F)c2)[C@H]1c1ccc(CO)cc1', 0.955),
  ('CCOC(=O)C1=CC[C@@H](c2ccccc2)N(S(=O)(=O)c2ccc(C)cc2)[C@@H]1C#N', 0.405),
  ('[N-]=[N+]=NCc1ccccc1[C@H]1OC(c2ccc(OCCCO)cc2)=N[C@@]1(CCS(=O)(=O)c1ccccc1)C(=O)O', 0.32);

Below: the item to evaluate.
Req: z-score for COC(=O)[C@@]1(Cc2ccc(F)cc2)[C@H]2c3cc(C(=O)N4CCCC4)n(CCc4c[nH]c5cc(F)ccc45)c3C[C@H]2CN1C(=O)c1ccccc1 ?
Resp: -0.167

###

- test name: small-molecule binders of probe aNOTCH2, primary screen, biochemical, small-molecule microarray, 635/667 nm fluorescence (AID 1121);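 further: score merges feature fluorescence read at 667 nm with its signal to noise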
- stated conditions: higher = more signal
Overview of reported composite z-score across a group of compounds:
Please give only the number in your answer, with no unit.

INSERT INTO assay_data (compound, quantity_measured, readout_value) VALUES
  ('C=CCN1C(=O)[C@@]2(O[C@@H](CCO)[C@H]([Si](C)(C)c3ccc(OC)cc3)[C@H]2C)c2cc(N3CCCCC3=O)ccc21', 'composite z-score', -0.108),
  ('CC(C)c1ccc(NN2C(C(O)C(C)c3ccccc3)C=CC3C(=O)N(c4ccccc4)C(=O)C32)cc1 (stereo not drawn)', 'composite z-score', 0.589),
  ('COC(=O)C1=CC(c2ccc(CO)cc2)=CC(C2CC2)N(Cc2cc3c(cc2Br)OCO3)C=C1C(=O)OC (stereo not drawn)', 'composite z-score', 0.165),
  ('O=C(c1ccccc1)N1Cc2ccccc2C[C@@]2(N=C(c3ccc(OCCCO)cc3)O[C@H]2c2ccccc2)C1=O', 'composite z-score', -0.0876),
  ('COc1ccc(C(O)C2C=CC3C(=O)N(c4ccccc4)C(=O)C3N2Nc2ccccc2F)c2ccccc12 (stereo not drawn)', 'composite z-score', 0.579);

Req: Requested read-out: composite z-score. Entry: C=C(COC)/C(=C/C[C@@H](OC(=O)c1ccncc1)c1ccccc1OCCO)c1cnc2ccccc2c1
Resp: -0.0762

Req: I would be grateful if you could share the reported composite z-score for CCOC(=O)C[C@H]1[C@H](OC(=O)c2ccc(-c3ccccc3)cc2)[C@@H](NC(=O)c2ccc(-c3ccccc3)cc2)c2cc(OCCCO)ccc2N1C(=O)c1ccccc1 .
Resp: -0.129

Req: # composite z-score lookup, item O=C1NC(=O)C2C1C=CC(C(O)C(c1ccccc1)c1ccccc1)N2Nc1ccccn1 (stereo not drawn)
Resp: 0.256
